Tested Target: Kinesin-like protein KIF11 (Homo sapiens, UniProt P52732)
Sequence (P52732 whole entry): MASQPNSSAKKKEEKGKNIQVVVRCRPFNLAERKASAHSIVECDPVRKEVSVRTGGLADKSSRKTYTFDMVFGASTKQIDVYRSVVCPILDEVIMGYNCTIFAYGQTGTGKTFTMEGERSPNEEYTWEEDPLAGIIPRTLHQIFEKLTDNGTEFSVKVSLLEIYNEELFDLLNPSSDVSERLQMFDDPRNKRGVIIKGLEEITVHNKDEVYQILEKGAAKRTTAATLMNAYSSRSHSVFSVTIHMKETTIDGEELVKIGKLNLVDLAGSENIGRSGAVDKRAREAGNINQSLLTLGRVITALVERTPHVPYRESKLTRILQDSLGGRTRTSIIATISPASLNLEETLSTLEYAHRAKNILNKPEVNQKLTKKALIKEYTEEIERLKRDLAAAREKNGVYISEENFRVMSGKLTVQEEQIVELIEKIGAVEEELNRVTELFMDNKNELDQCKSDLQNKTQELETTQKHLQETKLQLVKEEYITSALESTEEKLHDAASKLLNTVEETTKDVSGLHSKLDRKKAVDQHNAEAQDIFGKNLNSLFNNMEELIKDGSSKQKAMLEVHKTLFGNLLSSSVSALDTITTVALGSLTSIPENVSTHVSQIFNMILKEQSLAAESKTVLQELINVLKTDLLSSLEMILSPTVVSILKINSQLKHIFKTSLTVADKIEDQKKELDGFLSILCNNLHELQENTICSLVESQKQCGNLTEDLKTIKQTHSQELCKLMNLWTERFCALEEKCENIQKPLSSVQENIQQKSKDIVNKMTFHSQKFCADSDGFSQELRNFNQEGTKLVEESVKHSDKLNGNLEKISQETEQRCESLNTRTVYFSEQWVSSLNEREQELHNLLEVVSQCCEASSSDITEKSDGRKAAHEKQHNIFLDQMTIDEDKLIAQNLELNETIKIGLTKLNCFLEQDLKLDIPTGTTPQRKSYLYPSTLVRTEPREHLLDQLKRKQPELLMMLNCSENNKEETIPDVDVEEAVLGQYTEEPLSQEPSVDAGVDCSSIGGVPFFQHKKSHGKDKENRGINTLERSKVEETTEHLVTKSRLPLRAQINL
Experimental Protocol: Inhibition C-terminal His-tagged KSP motor domain(1 to 369 residues) (unknown origin) expressed in bacteria assessed as inhibition of microtubule-stimulated ATPase activity preincubated for 30 mins followed by addition of ATP and measured after 15 mins by luciferase-derived luminiscence assay
Catalogue of pIC50 readings, one per entry.
Convention used: pIC50 is expressed as -log10 of the molar concentration.

Worked set:
N[C@@H](CSC1(c2ccc(C(F)(F)F)cc2)c2ccccc2CCc2ccccc21)C(=O)NCCN1CCCCC1; 6.84
N[C@@H](CSC1(c2ccc(C(F)(F)F)cc2)c2ccccc2CCc2ccccc21)C(=O)NCCO; 7.10
N[C@@H](CSC1(c2ccc(C(F)(F)F)cc2)c2ccccc2CCc2ccccc21)C(=O)NCc1ccccc1; 6.45
CN(C)CCNC(=O)[C@@H](N)CSC1(c2ccc(C(F)(F)F)cc2)c2ccccc2CCc2ccccc21; 7.25

Now examine the next entry.
Lookup result for NCCOCCOCCNC(=O)C(N)CSC1(c2ccc(C(F)(F)F)cc2)c2ccccc2CCc2ccccc21 (stereo not given) ; measured pIC50: 7.38
